Target: Hormonally up-regulated neu tumor-associated kinase (Homo sapiens)
Assay: Inhibition of HUNK at 1 uM
Property: inhibition; scope: individual molecules

The molecule CC(=O)N1CCN(c2cc(-c3cnc4c(c3)N(Cc3cc(Cl)ccc3C(F)(F)F)CCN4)ccn2)CC1 showed inhibition equal to < 50%

The molecule CN1CCN(c2ccc(-c3cnc4c(c3)N(Cc3cc(Cl)ccc3C(F)(F)F)CCN4)cn2)CC1 showed inhibition equal to < 50%

----------
Molecular target: Dual specificity protein kinase CLK2 (Homo sapiens) (UniProt P49760)
Sequence (P49760 whole entry, looked up): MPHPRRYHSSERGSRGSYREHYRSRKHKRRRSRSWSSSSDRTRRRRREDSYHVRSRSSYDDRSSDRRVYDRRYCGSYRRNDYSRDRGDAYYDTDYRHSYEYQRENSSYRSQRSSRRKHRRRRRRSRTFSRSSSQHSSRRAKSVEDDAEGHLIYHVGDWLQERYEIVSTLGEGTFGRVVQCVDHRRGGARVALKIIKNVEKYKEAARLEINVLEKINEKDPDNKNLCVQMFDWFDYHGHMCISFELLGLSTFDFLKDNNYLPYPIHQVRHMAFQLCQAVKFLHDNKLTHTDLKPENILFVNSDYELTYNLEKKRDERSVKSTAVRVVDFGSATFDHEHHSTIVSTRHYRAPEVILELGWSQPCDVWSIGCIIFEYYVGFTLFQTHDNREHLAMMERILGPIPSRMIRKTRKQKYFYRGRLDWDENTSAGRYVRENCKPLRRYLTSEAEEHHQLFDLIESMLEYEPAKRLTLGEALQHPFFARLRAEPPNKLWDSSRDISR
Assay: Inhibition of CLK2 at 1 uM
measurement_type: inhibition

Example compounds with recorded inhibition:
The compound O=C(c1ccc(-c2cnc3c(c2)N(Cc2cc(Cl)ccc2C(F)(F)F)CCN3)cc1)N1CCCCC1 showed inhibition equal to < 50%

The compound O=C(c1ccc(-c2cnc3c(c2)N(Cc2cc(Cl)ccc2C(F)(F)F)CCN3)cc1)N1CCC(N2CCCC2)CC1 showed inhibition equal to < 50%

The compound COC1CCN(C(=O)c2ccc(-c3cnc4c(c3)N(Cc3cc(Cl)ccc3C(F)(F)F)CCN4)cc2)CC1 showed inhibition equal to < 50%

Would you kindly look at the next entry?
The compound CN1CCN(c2ccc(-c3cnc4c(c3)N(Cc3cc(Cl)ccc3Cl)CCN4)cn2)CC1 showed inhibition equal to < 50%

----------
Molecular target: Mitogen-activated protein kinase kinase kinase kinase 2 (Homo sapiens) (UniProt Q12851)
Sequence (Q12851 whole entry): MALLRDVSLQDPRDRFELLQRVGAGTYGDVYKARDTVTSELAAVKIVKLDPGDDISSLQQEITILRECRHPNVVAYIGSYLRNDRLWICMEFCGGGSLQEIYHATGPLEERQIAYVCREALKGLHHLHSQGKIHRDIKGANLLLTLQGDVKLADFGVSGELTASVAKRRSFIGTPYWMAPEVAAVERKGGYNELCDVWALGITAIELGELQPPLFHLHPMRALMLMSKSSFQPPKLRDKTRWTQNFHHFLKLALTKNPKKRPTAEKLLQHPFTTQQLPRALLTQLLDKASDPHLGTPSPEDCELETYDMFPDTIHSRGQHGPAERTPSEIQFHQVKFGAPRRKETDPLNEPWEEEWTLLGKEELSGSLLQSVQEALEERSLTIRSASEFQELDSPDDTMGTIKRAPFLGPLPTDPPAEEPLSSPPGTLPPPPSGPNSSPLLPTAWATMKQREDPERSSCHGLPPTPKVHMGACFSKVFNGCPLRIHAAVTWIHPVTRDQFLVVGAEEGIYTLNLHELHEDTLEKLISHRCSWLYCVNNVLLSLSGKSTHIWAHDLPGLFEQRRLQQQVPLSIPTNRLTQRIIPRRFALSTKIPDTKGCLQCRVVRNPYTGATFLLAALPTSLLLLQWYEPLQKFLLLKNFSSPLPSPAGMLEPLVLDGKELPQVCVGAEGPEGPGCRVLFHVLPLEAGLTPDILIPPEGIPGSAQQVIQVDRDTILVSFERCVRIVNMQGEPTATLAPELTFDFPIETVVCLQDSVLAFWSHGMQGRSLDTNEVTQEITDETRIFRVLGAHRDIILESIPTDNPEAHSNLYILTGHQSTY
Assay: Inhibition of MAP4K2 at 1 uM
measurement_type: inhibition (%)

The compound CN1CCN(c2ccc(-c3cnc4c(c3)N(Cc3cc(F)ccc3F)CCN4)cn2)CC1 showed inhibition equal to 70

The compound FC(F)(F)c1ccc(Cl)cc1CN1CCNc2ncc(-c3ccnc(N4CCNCC4)c3)cc21 showed inhibition equal to 70

The compound CN1CCN(c2ccc(-c3cnc4c(c3)N(Cc3c(F)ccc(F)c3Cl)CCN4)cn2)CC1 showed inhibition equal to 92

----------
Target: Mitogen-activated protein kinase kinase kinase kinase 3 (Homo sapiens) (UniProt Q8IVH8)
Sequence (Q8IVH8 whole entry): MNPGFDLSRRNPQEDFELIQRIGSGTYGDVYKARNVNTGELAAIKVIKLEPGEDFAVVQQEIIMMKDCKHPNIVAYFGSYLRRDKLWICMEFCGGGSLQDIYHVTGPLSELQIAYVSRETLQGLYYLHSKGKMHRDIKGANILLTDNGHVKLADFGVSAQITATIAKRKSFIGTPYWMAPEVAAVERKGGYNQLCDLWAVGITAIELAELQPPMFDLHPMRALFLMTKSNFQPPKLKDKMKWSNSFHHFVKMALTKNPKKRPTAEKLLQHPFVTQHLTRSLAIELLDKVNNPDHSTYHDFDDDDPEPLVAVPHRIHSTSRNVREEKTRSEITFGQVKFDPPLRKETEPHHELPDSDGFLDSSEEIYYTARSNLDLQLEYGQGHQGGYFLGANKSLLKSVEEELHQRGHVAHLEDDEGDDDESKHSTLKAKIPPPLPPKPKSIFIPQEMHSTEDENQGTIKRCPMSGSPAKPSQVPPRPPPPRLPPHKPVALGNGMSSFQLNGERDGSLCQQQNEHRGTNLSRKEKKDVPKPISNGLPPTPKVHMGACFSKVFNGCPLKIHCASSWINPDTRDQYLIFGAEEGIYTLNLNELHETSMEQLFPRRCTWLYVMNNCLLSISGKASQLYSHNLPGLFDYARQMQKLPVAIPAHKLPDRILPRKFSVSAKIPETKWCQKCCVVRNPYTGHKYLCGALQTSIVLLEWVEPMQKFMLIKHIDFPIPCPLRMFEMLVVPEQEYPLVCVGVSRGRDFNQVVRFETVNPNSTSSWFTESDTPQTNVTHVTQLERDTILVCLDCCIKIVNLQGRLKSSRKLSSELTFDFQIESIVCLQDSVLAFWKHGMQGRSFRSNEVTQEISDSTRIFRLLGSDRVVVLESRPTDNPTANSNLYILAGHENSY
Experiment: Inhibition of MAP4K3 at 1 uM
measurement_type: inhibition

Example compounds with recorded inhibition:
The compound FC(F)(F)c1ccc(Cl)cc1CN1CCNc2ncc(-c3ccnc(N4CCNCC4)c3)cc21 showed inhibition equal to 70%

The compound CN1CCN(c2ccc(-c3cnc4c(c3)N(Cc3cc(F)ccc3F)CCN4)cn2)CC1 showed inhibition equal to < 50%

The compound CN1CCN(c2ccc(-c3cnc4c(c3)N(Cc3c(F)ccc(F)c3Cl)CCN4)cn2)CC1 showed inhibition equal to 91%

The compound COC1CCN(C(=O)c2ccc(-c3cnc4c(c3)N(Cc3cc(Cl)ccc3C(F)(F)F)CCN4)cc2)CC1 showed inhibition equal to < 50%

The compound CN1CCN(c2ccc(-c3cnc4c(c3)N(Cc3cc(Cl)ccc3Cl)CCN4)cn2)CC1 showed inhibition equal to < 50%

New cases:
The compound O=C(c1ccc(-c2cnc3c(c2)N(Cc2cc(Cl)ccc2C(F)(F)F)CCN3)cc1)N1CCCCC1 showed inhibition equal to < 50%

The compound O=C(O)c1ccc(-c2cnc3c(c2)N(Cc2cc(Cl)ccc2C(F)(F)F)CCN3)cc1 showed inhibition equal to < 50%

The compound CC(=O)N1CCN(c2cc(-c3cnc4c(c3)N(Cc3cc(Cl)ccc3C(F)(F)F)CCN4)ccn2)CC1 showed inhibition equal to < 50%

The compound O=C(c1ccc(-c2cnc3c(c2)N(Cc2cc(Cl)ccc2C(F)(F)F)CCN3)cc1)N1CCC(N2CCCC2)CC1 showed inhibition equal to < 50%

The compound CN1CCN(c2ccc(-c3cnc4c(c3)N(Cc3cc(Cl)ccc3C(F)(F)F)CCN4)cn2)CC1 showed inhibition equal to < 50%
